Test system: calcium channel (e.g., L-type, N-type, etc.) current
EXPERIMENT_DESCRIPTION: HEK assay: whole-cell voltage clamp in transiently transfected HEK-293T/17 cells
Type: cell-based
CONDITION_SET: patch clamp, holding potential −100 mV, steps to about +10 mV, read-out: IC50
pIC50: −log10 of the molar value.
MEASURED_METRIC: pIC50

1. COc1ccccc1-c1nc(Cc2nc3ccccc3[nH]2)cn1-c1ccc(Cl)cc1	6.76
2. COc1ccccc1-c1nc(CCN2CCCC2)cn1-c1ccc(Cl)cc1	6.00
